Quick list: inhibition at up to 10 µM per entry.
test system: MCF-7; test: CellTiter-Glo cell proliferation inhibition, MCF-7 (Effect Example 2); format: cell-based; details: Homo sapiens, MCF7, 144 h; MCF-7 (CTG), 6 days, starting concentration 10 μM; read-out: IH % max (maximum inhibition percentage)
measured.quantity: inhibition at up to 10 µM (%)

• CS(=O)(=O)c1ccc(-c2ccc3cc(O)ccc3c2Oc2ccc(OCCOCCOCCOCCNc3ccc4c(c3)C(=O)N(C3CCC(=O)NC3=O)C4)cc2)cc1 (centres unmarked) = 47
• CS(=O)(=O)c1ccc(-c2ccc3cc(O)ccc3c2Oc2ccc(OCC(=O)N3CCN(c4ccc5c(c4)CN(C4CCC(=O)NC4=O)C5=O)CC3)cc2)cc1 (centres unmarked) = 96.5
• C[C@@H]1CN(CCOCC(=O)Nc2cccc3c2CN(C2CCC(=O)NC2=O)C3=O)[C@@H](C)CN1CCOc1ccc(Oc2c(-c3ccc(S(C)(=O)=O)cc3)ccc3cc(O)ccc23)cc1 (some centres unmarked) = 62
• CCN(CCOCCOCCOCCNc1cccc2c1C(=O)N(C1CCC(=O)NC1=O)C2=O)CCOc1ccc(Oc2c(-c3ccc(S(C)(=O)=O)cc3)ccc3cc(O)ccc23)cc1 (centres unmarked) = 35
• C[C@]12CC[C@@H]3c4ccc(O)cc4C[C@@H](CCCCCCCCC[S+]([O-])CCCC(F)(F)C(F)(F)F)[C@H]3[C@@H]1CC[C@@H]2O (some centres unmarked) [Fulvestrant, fulvestrant, reference compound] = 80.7

---

system: MCF-7; experiment: CellTiter-Glo cell proliferation inhibition, MCF-7 (Effect Example 2); assay type: cell-based; details: Homo sapiens, MCF7, 144 h; MCF-7 (CTG), 6 days, starting concentration 10 μM; read-out: IH % max (maximum inhibition percentage)
Where inhibition at up to 10 µM equals or exceeds 40%, the correct label is met; where it does not, the label is not met.

* CS(=O)(=O)c1ccc(-c2ccc3cc(O)ccc3c2Oc2ccc(OCCOCCOCCN3CCN(c4ccc5c(c4)C(=O)N(C4CCC(=O)NC4=O)C5=O)CC3)cc2)cc1 (stereo not drawn) | met
* CS(=O)(=O)c1ccc(-c2ccc3cc(O)ccc3c2Oc2ccc(OCCN3CCN(c4ccc5c(c4)C(=O)N(C4CCC(=O)NC4=O)C5=O)CC3)cc2)cc1 (stereo not drawn) | met
* CS(=O)(=O)c1ccc(-c2ccc3cc(O)ccc3c2Oc2ccc(OCCN3CCN(c4cccc5c4CN(C4CCC(=O)NC4=O)C5=O)CC3)cc2)cc1 (stereo not drawn) | met
* CCN(CCOCCOCCN1CCN(c2cccc3c2CN(C2CCC(=O)NC2=O)C3=O)CC1)CCOc1ccc(Oc2c(-c3ccc(S(C)(=O)=O)cc3)ccc3cc(O)ccc23)cc1 (stereo not drawn) | not met
* CCN(CCOCC(=O)N1CCN(c2cccc3c2CN(C2CCC(=O)NC2=O)C3=O)CC1)CCOc1ccc(Oc2c(-c3ccc(S(C)(=O)=O)cc3)ccc3cc(O)ccc23)cc1 (stereo not drawn) | met
* CS(=O)(=O)c1ccc(-c2ccc3cc(O)ccc3c2Oc2ccc(N3CCN(CCCCCOCC(=O)N4CCN(c5ccc6c(c5)CN(C5CCC(=O)NC5=O)C6=O)CC4)CC3)cc2)cc1 (stereo not drawn) | met
* CCN(CCOCCOCCN1CCN(c2ccc3c(c2)C(=O)N(C2CCC(=O)NC2=O)C3)CC1)CCOc1ccc(Oc2c(-c3ccc(S(C)(=O)=O)cc3)ccc3cc(O)ccc23)cc1 (stereo not drawn) | met
* CS(=O)(=O)c1ccc(-c2ccc3cc(O)ccc3c2Oc2ccc(OCCNCCCCCNc3cccc4c3C(=O)N(C3CCC(=O)NC3=O)C4=O)cc2)cc1 (stereo not drawn) | met
* CS(=O)(=O)c1ccc(-c2ccc3cc(O)ccc3c2Oc2ccc(OCCOCCOCCOCCOc3ccc4c(c3)C(=O)N(C3CCC(=O)NC3=O)C4)cc2)cc1 (stereo not drawn) | met
* CCN(CCCCCOCC(=O)Nc1cccc2c1CN(C1CCC(=O)NC1=O)C2=O)CCOc1ccc(Oc2c(-c3ccc(S(C)(=O)=O)cc3)ccc3cc(O)ccc23)cc1 (stereo not drawn) [Compound D1] | not met
* CCN(CCOc1ccc(Oc2c(-c3ccc(S(C)(=O)=O)cc3)ccc3cc(O)ccc23)cc1)CCN1CCN(c2ccc3c(c2)C(=O)N(C2CCC(=O)NC2=O)C3)CC1 (stereo not drawn) | met
* CCN(CCOCCOCCNc1ccc2c(c1)C(=O)N(C1CCC(=O)NC1=O)C2=O)CCOc1ccc(Oc2c(-c3ccc(S(C)(=O)=O)cc3)ccc3cc(O)ccc23)cc1 (stereo not drawn) | not met
* CCN(CCOCC(=O)N1CCN(c2ccc3c(c2)C(=O)N(C2CCC(=O)NC2=O)C3)CC1)CCOc1ccc(Oc2c(-c3ccc(S(C)(=O)=O)cc3)ccc3cc(O)ccc23)cc1 (stereo not drawn) | met
* CCN(CCOCCOCC(=O)N1CCN(c2cccc3c2CN(C2CCC(=O)NC2=O)C3=O)CC1)CCOc1ccc(Oc2c(-c3ccc(S(C)(=O)=O)cc3)ccc3cc(O)ccc23)cc1 (stereo not drawn) | not met
* CCN(CCOc1ccc(Oc2c(-c3ccc(S(C)(=O)=O)cc3)ccc3cc(O)ccc23)cc1)CC(=O)N1CCN(c2ccc3c(c2)CN(C2CCC(=O)NC2=O)C3=O)CC1 (stereo not drawn) | met
* CCN(CCOCCOCCOCCOc1ccc2c(c1)C(=O)N(C1CCC(=O)NC1=O)C2=O)CCOc1ccc(Oc2c(-c3ccc(S(C)(=O)=O)cc3)ccc3cc(O)ccc23)cc1 (stereo not drawn) | not met
* CS(=O)(=O)c1ccc(-c2ccc3cc(O)ccc3c2Oc2ccc(OCCOCCOCCOCCN3CCN(c4ccc5c(c4)CN(C4CCC(=O)NC4=O)C5=O)CC3)cc2)cc1 (stereo not drawn) | met
* CCN(CCOCCOCCOc1ccc2c(c1)C(=O)N(C1CCC(=O)NC1=O)C2=O)CCOc1ccc(Oc2c(-c3ccc(S(C)(=O)=O)cc3)ccc3cc(O)ccc23)cc1 (stereo not drawn) | met
* CS(=O)(=O)c1ccc(-c2ccc3cc(O)ccc3c2Oc2ccc(OCCOCCOCCN3CCN(c4ccc5c(c4)CN(C4CCC(=O)NC4=O)C5=O)CC3)cc2)cc1 (stereo not drawn) | met
* CS(=O)(=O)c1ccc(-c2ccc3cc(O)ccc3c2Oc2ccc(OCCOCCOCCN3CCN(c4cccc5c4CN(C4CCC(=O)NC4=O)C5=O)CC3)cc2)cc1 (stereo not drawn) | met
